Data origin: patent US20250034269A1

Target: human LTBR on cells (human, UniProt P36941 31-435)
Assay: cell-based or functional assay
parameter: NFκB luc, 234.4 ng/ml, w/o x linker (RLU)
Your answer should be a plain number; it is taken to be in RLU.

Some binders with recorded NFκB luc, 234.4 ng/ml, w/o x linker:
{"binder": "P1AF0079 (antibody, human IgG1, kappa, L234A L235A, V domains shown, human IgG1 PG LALA; from transgenic rabbit immunization; also called LTBR (0079)) VH: EVQLLESGGALVQPGGSLRLSCAASGFTFSSYAMSWVRQAPGKGLEWVSVITGSSSSIDYADSVKGRFTISRDNSKNTLYLQMNSLRAEDTAVYYCAKGGSGVWSISTDFDYWGQGTLVTVSS VL: DIQMTQSPSFLSASVGDRVTITCQASQDISNYLNWYQQKPGKAPKHLIYAASSLHSGVPSRFSGSGSGAYFTLTITSLQPEDFATYYCQQSHSTPPTFGPGTKVDIKR", "NFκB luc, 234.4 ng/ml, w/o x linker, RLU": 13100}
{"binder": "P1AF0080 (antibody, human IgG1, kappa, L234A L235A, V domains shown, human IgG1 PG LALA; from transgenic rabbit immunization; also called LTBR (0080)) VH: EVQLLESGGGLVQPGGSLRLSCAASGFTFSYYAMTWVRQAPGKGLEWIGVINSGGGTYYTDSVKGRFTMSRDNSKNTLYLQVNSLRAEDTAVYYCAKASTADVWGQGTTVTVSS VL: DIQMTQSPSSLSASVGDRVTITCQASQGISNYLSWYQQKPGKAPKRLIFAASSLESGVPSRFSGSGSGTDFTLTISSLQPEDFATYYCQQYNSYSLTFGGGTKLEIKR", "NFκB luc, 234.4 ng/ml, w/o x linker, RLU": 18300}

Q. Look at this binder and give its reported NFκB luc, 234.4 ng/ml, w/o x linker. P1AE9457 (antibody, human IgG1, kappa, L234A L235A, V domains shown, human IgG1 PG LALA; from transgenic rabbit immunization; also called LTBR (9457)) VH: EVQLLESGGGLVQPGGSLRLSCAASGFTFSNYAMTWVRQAPGKGLEWVSEISGSGGSTYYADSVKGRFTISRDNSKNTLYLQMNSLRAEDTAVYYCAKDDDGAYGDTMDVWGQGTTVTVSS VL: DIQMTQSPSSLSASIGDRVTITCRASQDISNYLNWYQQKPGKAPKLLIYAASALQSGVPSRFSGSGSGTDFTLTISSLQPEDFATYYCQHYKSYPYTFGQGTKVEIRR
A. 14800

Q. Look at this binder and give its reported NFκB luc, 234.4 ng/ml, w/o x linker. P1AE9450 (antibody, human IgG1, kappa, L234A L235A, V domains shown, human IgG1 PG LALA; from transgenic rabbit immunization; also called LTBR (9450)) VH: EVQLLESGGGLVQPGGSLRLSCAASGFTVSSYVMKWFRQAPGKGLEWVSSISGSGGRPFYADSVKGRFTISRDNSKNALYLQMNSLRAEDTAVYYCANDMDVWGQGTTVTVSS VL: DIQMTQSPSSLSASVGDRVTITCRASQDISSFLKWYQQKPGKAPTLLIYAASALQSGVPSRFSGSGSGTDFTLTISSLQPEDFATYYCQQYNTYPLTFGGGTKVDIKR
A. 18100
